Every entry's value here was drawn from patent US9718790B2.

# Measurement target: human P2X3 receptor (Homo sapiens (Human), UniProt P56373)
# Sequence (P56373 whole entry): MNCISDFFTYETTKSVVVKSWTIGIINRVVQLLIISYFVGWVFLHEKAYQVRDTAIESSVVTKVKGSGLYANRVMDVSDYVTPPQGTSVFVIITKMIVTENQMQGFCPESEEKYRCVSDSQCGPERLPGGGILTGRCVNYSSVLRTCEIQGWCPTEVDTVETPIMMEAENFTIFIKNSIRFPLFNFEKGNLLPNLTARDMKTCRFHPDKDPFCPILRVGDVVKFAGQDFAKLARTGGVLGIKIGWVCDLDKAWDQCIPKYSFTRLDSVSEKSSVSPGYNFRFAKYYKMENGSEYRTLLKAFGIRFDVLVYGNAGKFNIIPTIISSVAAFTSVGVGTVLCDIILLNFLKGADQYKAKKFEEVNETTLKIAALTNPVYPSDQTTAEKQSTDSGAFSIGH
# Assay text: Evaluation of human P2X3 receptor inhibitory activity (Fluo-3 calcium fluorescence, FDSS 3000, ATP stimulation);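 also: stimulus was 50 nM ATP with fluorescence followed for 3 min, and the response per well was peak post-ATP fluorescence divided by the reading at measurement start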
# Type: cell-based
# Measurement context: C6BU-1 cells stably expressing human P2X3 receptor, Fluo-3 fluorescence, FDSS 3000
Readout: log10 of IC50 (log10 of the value in nM)

compound="C/C=C\\c1ccc(Cn2c(=O)n(C[C@H](C)C(=O)OC)c(=O)[nH]/c2=N\\c2ccc(OC(C)C)cc2)cc1 [Compound I-1142]" recorded_number=2.90
compound="C[C@@H](C(=O)O)[C@H](C)n1c(=O)[nH]/c(=N\\c2ccc3nc(C4CC4)sc3c2)n(Cc2ccc(Cl)cc2)c1=O [Compound I-1586]" recorded_number=1.11
compound="CCOc1ccc(/N=c2\\[nH]c(=O)n(CC3(C(=O)O)CC3)c(=O)n2Cc2ccc(Cl)cc2)cc1Cl [Compound I-0924]" recorded_number=1.48
compound="Cc1ccc(Cn2c(=O)n(CCC(=O)NS(C)(=O)=O)c(=O)[nH]/c2=N\\c2ccc(OC(C)C)c(Cl)c2)cc1 [Compound I-1874]" recorded_number=1.11
compound="CC[C@H](C)COc1ccc(/N=c2\\[nH]c(=O)n(C[C@H](C)C(=O)OC)c(=O)n2Cc2ccc(C)cc2)cc1 [Compound I-1045]" recorded_number=2.20
compound="COC(=O)[C@@H](C)Cn1c(=O)[nH]/c(=N\\c2ccc(Oc3cccnc3)cc2)n(Cc2ccc(C)cc2)c1=O [Compound I-1126]" recorded_number=0.90
compound="CCc1oc2ccc(/N=c3\\[nH]c(=O)n(CC(C)(C)C(=O)O)c(=O)n3Cc3ccc(C)cc3)cc2c1C [Compound I-1582]" recorded_number=0.85

----------
Listed below: pIC50 values for each entry.
# Measurement target: UniProt:P56373
# Assay text: Evaluation of human P2X3 receptor inhibitory activity (Fluo-3 calcium fluorescence, FDSS 3000, ATP stimulation)
# Assay type: cell-based
# Measurement context: human P2X3 receptor, Test Example 1
pIC50: −log10 of the molar value.
Readout: pIC50

smiles_structure=COC(=O)c1ccc(Oc2ccc(/N=c3\[nH]c(=O)n(C)c(=O)n3Cc3ccc(Cl)cc3)cc2)cn1 readout=pIC50 recorded_number=8.52
smiles_structure=CCn1c(=O)[nH]/c(=N\c2ccc(Oc3cncc(C)n3)cc2)n(Cc2ccc(Cl)cc2)c1=O readout=pIC50 recorded_number=7.82
smiles_structure=CCn1c(=O)[nH]/c(=N\c2ccc(Oc3cccc(C(=O)O)n3)cc2)n(Cc2ccc(F)cc2)c1=O readout=pIC50 recorded_number=7.52
smiles_structure=CNC(=O)CCn1c(=O)[nH]/c(=N\c2ccc(Oc3ccon3)cc2)n(Cc2ccc(Cl)cc2)c1=O readout=pIC50 recorded_number=7.59
smiles_structure=CC1(C)OC[C@H](Cn2c(=O)[nH]/c(=N\c3ccc(Oc4cncc(F)c4)cc3)n(Cc3ccc(Cl)cc3)c2=O)O1 readout=pIC50 recorded_number=8.52
smiles_structure=CCn1c(=O)[nH]/c(=N\c2ccc(Oc3ccc(NC(=O)NC4CC4)nc3)cc2)n(Cc2ccc(Cl)cc2)c1=O readout=pIC50 recorded_number=8.22
smiles_structure=CCc1oc2ccc(/N=c3\[nH]c(=O)n(CCC(=O)O)c(=O)n3Cc3ccc(Cl)cc3)cc2c1C readout=pIC50 recorded_number=7.82
smiles_structure=CCn1c(=O)[nH]/c(=N\c2ccc(Oc3ccc(C#N)cc3)nc2)n(Cc2ccc(Cl)cc2)c1=O readout=pIC50 recorded_number=6.86
smiles_structure=CNC(=O)c1cc(Oc2ccc(/N=c3\[nH]c(=O)n(C)c(=O)n3Cc3ccc(Cl)cc3)cc2F)ccn1 readout=pIC50 recorded_number=8.30
smiles_structure=NC(=O)c1ccc(Oc2ccc(/N=c3\[nH]c(=O)n(CCO)c(=O)n3Cc3ccc(Cl)cc3)cc2)cc1 readout=pIC50 recorded_number=8.10
smiles_structure=CCn1c(=O)[nH]/c(=N\c2ccc(Oc3ccc(C(=O)O)cn3)cc2)n(Cc2ccc(C)cc2)c1=O readout=pIC50 recorded_number=8.22
smiles_structure=COC(=O)CCn1c(=O)[nH]/c(=N\c2ccc(Oc3cccc(C(N)=O)n3)cc2)n(Cc2ccc(C)cc2)c1=O readout=pIC50 recorded_number=8.70
smiles_structure=COCCn1c(=O)[nH]/c(=N\c2ccc(Oc3cccc(C#N)n3)cc2)n(Cc2ccc(Cl)cc2)c1=O readout=pIC50 recorded_number=8.52
smiles_structure=Cc1ccc(Cn2c(=O)n(C)c(=O)[nH]/c2=N\c2ccc(Oc3ccc(C(N)=O)cn3)cc2)cc1 readout=pIC50 recorded_number=8.00
smiles_structure=CCCOc1ccc(/N=c2\[nH]c(=O)n(C[C@H](C)C(=O)O)c(=O)n2Cc2ccc(C)cc2)cc1 readout=pIC50 recorded_number=7.60
smiles_structure=O=C(O)Cn1c(=O)[nH]/c(=N\c2ccc(Oc3ccnnc3)cc2)n(Cc2ccc(Cl)cc2)c1=O readout=pIC50 recorded_number=7.07
smiles_structure=CCn1c(=O)[nH]/c(=N\c2ccc3nc(N4CCC4)sc3c2)n(Cc2ccc(Cl)cc2)c1=O readout=pIC50 recorded_number=6.90
smiles_structure=CCn1c(=O)[nH]/c(=N\c2ccc(Oc3cncc(C(=O)OC)n3)cc2)n(Cc2ccc(C)cc2)c1=O readout=pIC50 recorded_number=8.15
smiles_structure=C=C(C)c1ccc(/N=c2\[nH]c(=O)n(C[C@H](C)C(=O)OC)c(=O)n2Cc2ccc(C)cc2)cc1Cl readout=pIC50 recorded_number=6.55
smiles_structure=CCOc1ccc(/N=c2\[nH]c(=O)n([C@H](C)CC(=O)O)c(=O)n2Cc2ccc(C)cc2)cc1Cl readout=pIC50 recorded_number=7.24
smiles_structure=CCn1c(=O)[nH]/c(=N\c2ccc(Oc3cccc(C(=O)O)n3)cc2)n(Cc2ccc(Cl)cn2)c1=O readout=pIC50 recorded_number=7.31
smiles_structure=Cc1ccc(Cn2c(=O)n(CCC(=O)O)c(=O)[nH]/c2=N\c2ccc(Oc3cc(C(=O)O)ccn3)cc2)cc1 readout=pIC50 recorded_number=7.44
smiles_structure=Cn1ccc(Oc2ccc(/N=c3\[nH]c(=O)n(CCCO)c(=O)n3Cc3ccc(Cl)cc3)cc2)n1 readout=pIC50 recorded_number=7.44
smiles_structure=CCCOc1ccc(/N=c2\[nH]c(=O)n(CC(F)(F)C(=O)O)c(=O)n2Cc2ccc(C)cc2)cc1 readout=pIC50 recorded_number=7.40
smiles_structure=Cc1nsc(Oc2ccc(/N=c3\[nH]c(=O)n(CC(=O)O)c(=O)n3Cc3ccc(Cl)cc3)cc2)n1 readout=pIC50 recorded_number=7.15
smiles_structure=CCOC(=O)Cn1c(=O)[nH]/c(=N\c2ccc(Oc3cccc(F)n3)cc2)n(Cc2ccc(Cl)cc2)c1=O readout=pIC50 recorded_number=8.40
smiles_structure=Cc1ccc(Cn2c(=O)n(C[C@H](C)C(=O)O)c(=O)[nH]/c2=N\c2cnc(OC3CCC3)c(C)c2)cc1 readout=pIC50 recorded_number=7.01
smiles_structure=Cc1cc(/N=c2\[nH]c(=O)n(C[C@H](O)C(=O)O)c(=O)n2Cc2ccc(Cl)cc2)ccc1OC(C)C readout=pIC50 recorded_number=7.42
